target: T1, PSMA Fab (SEQ ID NOs: 19, 20); experiment: clonal phage ELISA; biotinylated PSMA Fab captured on neutravidin plate, bound phage detected with anti-M13-HRP
T1 construct: also called Anti-PSMA Fab; 006 PSMA Fab
Where no end group is shown, it is not given here.
READOUT NAME: Phage binding ELISA signal, Anti-PSMA Fab

Name the recorded Phage binding ELISA signal, Anti-PSMA Fab for DARLCKPTWMCMGL (Tested as clonal phage supernatant; not shown: pIII coat protein of the bacteriophage to which the peptide is fused) [Phage-3809 (Peptide-180 library clone, SEQ ID NO: 4125)] .
1.29

Same lookup for EWLVCKPAWMCLGL (Tested as clonal phage supernatant; not shown: pIII coat protein of the bacteriophage to which the peptide is fused) [Phage-3801 (Peptide-180 library clone, SEQ ID NO: 4117)] , please.
1.3

Entry to check: SFQRCEPEWMCYGF (Tested as clonal phage supernatant; not shown: pIII coat protein of the bacteriophage to which the peptide is fused) [Phage-3811 (Peptide-180 library clone, SEQ ID NO: 4127)]
1.29

Try the binder GGPMCKPVWMCQGF (Tested as clonal phage supernatant; not shown: pIII coat protein of the bacteriophage to which the peptide is fused) [Phage-3803 (Peptide-180 library clone, SEQ ID NO: 4119)]
1.3

// repeat for LGVQCKPTWMCQGF (Tested as clonal phage supernatant; not shown: pIII coat protein of the bacteriophage to which the peptide is fused) [Phage-3808 (Peptide-180 library clone, SEQ ID NO: 4124)] and report
1.29

# repeat for YTAMCVPVWMCNVL (cysteine pairing not given here; also: displayed on phage as fusion to pIII, junction not given here, Tested as clonal phage supernatant; not shown: pIII coat protein of the bacteriophage to which the peptide is fused) [Phage-3813 (Peptide-180 library clone, SEQ ID NO: 4129)]
1.29

Please do the same for HMIHCVPDWMCEGF (Tested as clonal phage supernatant; not shown: pIII coat protein of the bacteriophage to which the peptide is fused) [Phage-3805 (Peptide-180 library clone, SEQ ID NO: 4121)] as well.
1.3

Again, but for EVLRCVPRWMCEKF (Tested as clonal phage supernatant; not shown: pIII coat protein of the bacteriophage to which the peptide is fused) [Phage-3802 (Peptide-180 library clone, SEQ ID NO: 4118)]
1.3

The reported measurements were obtained from patent US20260242478A1.
